System: PANC-1
ASSAY_NOTES: MTT assay, PANC-1 cells
Assay type: cell-based, human
MEASUREMENT_SETUP: Homo sapiens, PANC-1, 72 h, PANC-1, pancreatic cancer; 72 hours; Table 1; read-out: IC50 in Cancer Cells Using the MTT Assay
Method: 8×10^3 cells/well were plated in a […]. Stock solutions of the agents were made in DMSO. Dilution of the compounds were in media with 10% FBS (fetal bovine serum). The cells were incubated in the drug for 72 hours and cell viability was determined by the MTT assay. IC50 was then calculated.
VALUE_TYPE: IC50 (nM)
Express the result in nM but write the number alone.

Using the record for CS(=O)(=O)O[C@H]1C(=O)N(c2cc3c4ccccc4ccc3c3ccccc23)C1c1ccccn1 (stereo partly shown) , report its IC50.
430

###

Test system: MDA-231
ASSAY_NOTES: MTT assay, MDA-231 cells
Format: cell-based, human
MEASUREMENT_SETUP: Homo sapiens, MDA-MB-231; MDA-231, breast cancer; 72 hours; Table 1; read-out: IC50 in Cancer Cells Using the MTT Assay
Experimental: 8×10^3 cells/well were plated in a […]. Stock solutions of the agents were made in DMSO. Dilution of the compounds were in media with 10% FBS (fetal bovine serum). The cells were incubated in the drug for 72 hours and cell viability was determined by the MTT assay. IC50 was then calculated.
VALUE_TYPE: pIC50
// pIC50 is dimensionless: -log10 of concentration (M)

# pIC50 lookup, item CS(=O)(=O)O[C@H]1C(=O)N(c2cc3c4ccccc4ccc3c3ccccc23)C1c1ccccn1 (stereo partly shown) [Compound 12]
6.37

###

Tested on: PANC-1
ASSAY_NOTES: MTT assay, PANC-1 cells
Assay type: cell-based, human
MEASUREMENT_SETUP: PANC-1; Table 2 (average of runs); read-out: IC50 against Human Pancreatic Cancer Lines Using the MTT Assay
VALUE_TYPE: pIC50
Here pIC50 is given on a logarithmic scale as minus log10 of the concentration in mol/L.

Form field: reported pIC50 of CS(=O)(=O)O[C@H]1C(=O)N(c2cc3c4ccccc4ccc3c3ccccc23)C1c1ccccn1 (stereo partly shown)
6.12

###

Tested on: A-549
ASSAY_NOTES: MTT assay, A-549 cells
Assay type: cell-based, human
MEASUREMENT_SETUP: A-549, Non-Small Cell Carcinoma of the Lung; 72 hours; Table 1; read-out: IC50 in Cancer Cells Using the MTT Assay
The following molecules are shown together with reported IC50 values.

CN1CCN(C(=O)CCC(=O)Nc2cc3c4ccccc4ccc3c3ccccc23)CC1 :: > 100 µM

# input molecule: N.N.[Cl][Pt][Cl] [Cisplatin, cisplatin] ; wanted: its IC50
> 100 µM

###

Test system: PC-3
ASSAY_NOTES: MTT assay, PC-3 cells
Type: cell-based, human
MEASUREMENT_SETUP: Homo sapiens; PC-3, carcinoma of the prostate; 72 hours; Table 1; read-out: IC50 in Cancer Cells Using the MTT Assay
VALUE_TYPE: IC50 (nM)
Note: unit nM is implicit; provide only the numeric part.

Find the recorded IC50 belonging to CS(=O)(=O)O[C@H]1C(=O)N(c2cc3c4ccccc4ccc3c3ccccc23)C1c1ccccn1 (stereo partly shown) [Compound 12] and report it.
510

The reported measurements were obtained from patent US8946409B2.
